- System: UACC-257
- assay.overview: NCI tumour cell line growth inhibition, 48 h
Activity calls are given as the source filed them. No stated cut-off is given here; in the data, active = GI50 up to about 1.1 µM and inactive = higher.
The categories you may choose from are Y for active, N for inactive

Would you please look over these solved cases?
{"compound": "O=CC1=C(C(=O)OC(c2ccccc2)c2ccccc2)N2C(=O)[C@@H](NC(=O)Cc3cccs3)[C@H]2SC1", "classification": "N"}
{"compound": "CN(C)CCNc1c([N+](=O)[O-])cc2c3c(cccc13)C(=O)N(CCN(C)C)C2=O", "classification": "N"}
{"compound": "COc1ccc2cccc(C(=O)c3ccc(C)c4c3CCC4)c2c1", "classification": "N"}
{"compound": "CCNCCCNc1c2ccccc2nc2ccccc12", "classification": "Y"}
{"compound": "COC(=O)C(=O)C(CC(=O)Nc1cc(Cl)ccc1Cl)C(=O)OC (stereo not given)", "classification": "N"}
{"compound": "COC(=O)[C@]1(C)CCCC2(C)C1CC[C@H]1C=C(C)[C@H]3CCC12C3 (stereo not given in full)", "classification": "N"}
{"compound": "O=C1CC(C(=O)N2CCCCC2)n2c(=O)n(-c3ccccc3)c(=O)n2C1 (stereo not given)", "classification": "N"}
{"compound": "CN1C(=N\\S(=O)(=O)c2ccc(Cl)cc2)/C(=N/N=P(c2ccccc2)(c2ccccc2)c2ccccc2)c2ccccc21", "classification": "N"}
{"compound": "NCCC(=O)N[C@H](Cc1cc(O)c(O)c(SCC(NC(=O)CC[C@H](N)C(=O)O)C(=O)NCC(=O)O)c1)C(=O)O (stereo not given in full)", "classification": "N"}

Please look at the following compound next.
IN: // return assay outcome for CC(=O)CC1(CBr)Nc2ccc([N+](=O)[O-])cc2NC1=O (stereo not given)
OUT: N

The measurements presented in this section are drawn from ChEMBL document CHEMBL1201862.
